Catalogue of EC50 values
Molecular target: T1, human RAMP2 co-expressed with human CRLR on CHO-K1 cells (hCR2-CHOK1) (human, UniProt O60895 43-175; Q16602 23-461)
T1 construct: whole, on cells; The antibodies are directed to RAMP2; also called hCRLR / hRAMP2-expressing CHO-K1 cells; membrane surface RAMP2 protein
T1 sequence (O60895 43-175, chain 1 of 2): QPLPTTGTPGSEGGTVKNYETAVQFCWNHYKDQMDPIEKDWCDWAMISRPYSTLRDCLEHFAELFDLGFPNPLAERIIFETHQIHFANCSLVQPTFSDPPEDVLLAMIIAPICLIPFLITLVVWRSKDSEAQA
T1 sequence (Q16602 23-461, chain 2 of 2): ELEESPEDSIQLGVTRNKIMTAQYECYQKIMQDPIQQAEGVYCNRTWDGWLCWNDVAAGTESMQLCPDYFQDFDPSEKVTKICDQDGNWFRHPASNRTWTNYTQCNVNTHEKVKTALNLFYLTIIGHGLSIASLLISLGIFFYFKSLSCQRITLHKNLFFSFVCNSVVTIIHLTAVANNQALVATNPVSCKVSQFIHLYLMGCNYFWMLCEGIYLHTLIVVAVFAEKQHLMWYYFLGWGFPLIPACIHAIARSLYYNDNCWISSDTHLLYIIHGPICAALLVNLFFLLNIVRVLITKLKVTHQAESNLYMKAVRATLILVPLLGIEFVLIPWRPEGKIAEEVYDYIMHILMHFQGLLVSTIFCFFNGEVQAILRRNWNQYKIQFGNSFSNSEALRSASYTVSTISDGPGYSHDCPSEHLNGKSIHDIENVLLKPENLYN
Test: Cell ELISA on fixed hCR2-CHOK1 cells, 1/10 serial dilution from 67 nM, anti-human IgG Fc-HRP, GraphPad Prism 7
readout: EC50 (nM)

[[record]]
binder = "h85H7-2B11v3 (antibody, V domains shown) VH: QVQLVQSGAEVKKPGASVKMSCKASGYSFSGYFMNWVKQAPGQGLEWIGRINPYNGDTFYNQKFKGRATLTVDTSTSTTYMELSSLRSEDTALYYCARLGIYDVYHYVMENWGQGTTVTVSS VL: DIQMTQSPSSLSASVGDRVTITCRASQDIRNYLNWYQQKPGKAVKLLIYYTSRLHSGVPSRFSGSGSGTDYTLTISSLQPEDIATYFCQQDSKNPWTFGQGTKLEIK"
readout = "EC50"
number = 0.23

[[record]]
binder = "h25H4-4F9v8 (antibody, V domains shown) VH: EVQLVQSGAEVKKPGATVKISCKVSGYTFTGYFMNWVQQAPGKGLEWMGRNNPYNGDSIYAEKFQGRVTITADTSTDTAYMELSSLRSEDTAVYYCARLMIFDAYYAMDYWGQGTTVTVSS VL: DIQMTQSPSSLSASVGDRVTITCQASQDIRNYLNWYQQKPGKAPKLLIYYTSRLETGVPSRFSGSGSGTDFTFTISSLQPEDIATYYCQQDSKHPWTFGQGTKLEIK"
readout = "EC50"
number = 3.03

[[record]]
binder = "h85H7-2B11v1 (antibody, V domains shown) VH: EVQLVQSGPEVVKPGASVKMSCKASGYSFSGYFMNWVKQAHGQSLEWIGRINPYNGDTFYNQKFKGKATLTVDKSTSTTYMELSSLRSEDTALYYCARLGIYDVYHYVMENWGQGTTVTVSS VL: DIQMTQSTSSLSASLGDRVTITCRASQDIRNYLNWYQQKPGKTVKLLIYYTSRLHSGVPSRFSGSGSGTDYTLTISSLQQEDIATYFCQQDSKNPWTFGQGTKLEIK"
readout = "EC50"
number = 0.18

[[record]]
binder = "h25H4-4F9v3 (antibody, V domains shown) VH: EVQLVQSGAEVKKPGATVKISCKASGYSFTGYFMNWVKQAPGKGLESIGRNNPYNGDSIYNQKFKGRATLTVDTSTDTAYMELSSLRSEDTAVYYCARLMIFDAYYAMDYWGQGTTVTVSS VL: DIQMTQSPSSLSASVGDRVTITCRASQDIRNYLNWYQQKPGKAVKLLIYYTSRLHSGVPSRFSGSGSGTDYTLTISSLQPEDIATYFCQQDSKHPWTFGQGTKLEIK"
readout = "EC50"
number = 0.83

[[record]]
binder = "h25H4-4F9v6 (antibody, V domains shown) VH: EVQLVQSGAEVKKPGATVKISCKVSGYTFTGYFMNWVQQAPGKGLESMGRNNPYNGDSIYAEKFQGRVTITADTSTDTAYMELSSLRSEDTAVYYCARLMIFDAYYAMDYWGQGTTVTVSS VL: DIQMTQSPSSLSASVGDRVTITCQASQDIRNYLNWYQQKPGKAVKLLIYYTSRLHSGVPSRFSGSGSGTDFTFTISSLQPEDIATYYCQQDSKHPWTFGQGTKLEIK"
readout = "EC50"
number = 3.19

[[record]]
binder = "h25H4-4F9v1 (antibody, V domains shown) VH: EVQLVQSGPEVVKPGATVKISCKASGYSFTGYFMNWVKQAQGKSLESIGRNNPYNGDSIYNQKFKGKATLTVDKSTNTAYMELSSLRSEDTAVYYCARLMIFDAYYAMDYWGQGTTVTVSS VL: DIQMTQSTSSLSASLGDRVTITCRASQDIRNYLNWYQQKPGKTVKLLIYYTSRLHSGVPSRFSGSGSGTDYTLTISSLQQEDIATYFCQQDSKHPWTFGQGTKLEIK"
readout = "EC50"
number = 0.73

[[record]]
binder = "h25H4-4F9v2 (antibody, V domains shown) VH: EVQLVQSGAEVKKPGATVKISCKASGYSFTGYFMNWVKQAPGKGLESIGRNNPYNGDSIYNQKFKGRATLTVDTSTDTAYMELSSLRSEDTAVYYCARLMIFDAYYAMDYWGQGTTVTVSS VL: DIQMTQSTSSLSASLGDRVTITCRASQDIRNYLNWYQQKPGKTVKLLIYYTSRLHSGVPSRFSGSGSGTDYTLTISSLQQEDIATYFCQQDSKHPWTFGQGTKLEIK"
readout = "EC50"
number = 1.05


Origin of measurements: patent WO2019054460A1
